The measurements presented in this section are drawn from patent US20170326232A1.

# protocol: Solubilization of peptide antigens in buffers and organic solvents (visual assessment)
# Assay type: physicochemical
# experimental_conditions: 6M guanidine hydrochloride pH 8.5 or 20% IPA/water (v/v); read-out: solubility
Square brackets hold non-standard residues; d marks the D form. Ends that are not written are not given here. PEG24 = NCCOCCOCCOCCOCCOCCOCCOCCOCCOCCOCCOCCOCCOCCOCCOCCOCCOCCOCCOCCOCCOCCOCCOCCOCCC(=O)O; Cha = N[C@@H](CC1CCCCC1)C(=O)O
observed_property: solubility

Noted for [PEG24]VGALEGPRNQDWLAK[Cha]VAAWTLKAAATAYRYHLLSSVYDFFVWLSC [Triple] : its solubility reads 1000 to 5000 µg/mL

---

# protocol: Solubilization of peptide antigens in buffers and organic solvents (visual assessment)
# Format: physicochemical
# experimental_conditions: 0.1 M sodium bicarbonate buffer; 0.1 M sodium bicarbonate, pH 8 buffer; read-out: solubility
Ends that are not written are not given here.
observed_property: solubility

Noted for CSGLEQLESIINFEKLTEWTSSNVMEERKIKV [OVApep] : its solubility reads 2000 to 4000 µg/mL
